Each recorded value in this set is attributed to patent US20190106460A1.

Parameter: % Inhibition Fbw7 @ 10 µM. Scope: all listed entries.
- EXPERIMENTAL SYSTEM: Fbw7 (UniProt Q969H0 263-707, limits assumed)
- Sequence (Q969H0 263-707 limits assumed): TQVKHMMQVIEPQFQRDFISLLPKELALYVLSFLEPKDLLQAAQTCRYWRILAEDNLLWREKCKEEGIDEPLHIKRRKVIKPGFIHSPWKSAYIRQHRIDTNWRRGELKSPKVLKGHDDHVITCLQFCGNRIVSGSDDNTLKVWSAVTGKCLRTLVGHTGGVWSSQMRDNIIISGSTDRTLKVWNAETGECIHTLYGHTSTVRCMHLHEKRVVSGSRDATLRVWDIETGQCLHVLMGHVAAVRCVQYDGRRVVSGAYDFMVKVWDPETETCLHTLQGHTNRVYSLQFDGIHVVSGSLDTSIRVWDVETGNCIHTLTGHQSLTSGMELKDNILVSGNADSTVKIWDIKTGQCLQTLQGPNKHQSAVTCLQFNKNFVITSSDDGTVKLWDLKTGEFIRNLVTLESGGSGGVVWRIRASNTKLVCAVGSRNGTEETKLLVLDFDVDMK
- MEASUREMENT DESCRIPTION: cell-based or functional assay
Starred links: 1 amine or outer side, 2 acyl side, 3 side chain; linkers in the order of their positions; H or OH if unused. Non-standard residues stand in square brackets, D forms with d. *: point of attachment. Phe(4-NO2) = N[C@@H](Cc1ccc([N+](=O)[O-])cc1)C(=O)O; 3,4‑(MeO)2‑PhSO2 = COc1ccc(S(=O)(=O)*)cc1OC; Phe(3-F) = N[C@@H](Cc1cccc(F)c1)C(=O)O; Suc = O=C(CCC(=O)[*:2])[*:1]; Tos = Cc1ccc(S(=O)(=O)*)cc1

{"BINDER": "Tos-DEG[Phe(3-F)]WE-NH2 (SMILES Cc1ccc(S(=O)(=O)N[C@@H](CC(=O)O)C(=O)N[C@@H](CCC(=O)O)C(=O)NCC(=O)N[C@@H](Cc2cccc(F)c2)C(=O)N[C@@H](Cc2c[nH]c3ccccc23)C(=O)N[C@@H](CCC(=O)O)C(N)=O)cc1, also called UBP024) [Ts-DEGF(3F)WE-NH2]", "TEST VALUE": "0%"}
{"BINDER": "Suc-EG[Phe(3-F)][Phe(4-NO2)]E-NH2 (SMILES NC(=O)[C@H](CCC(=O)O)NC(=O)[C@H](Cc1ccc([N+](=O)[O-])cc1)NC(=O)[C@H](Cc1cccc(F)c1)NC(=O)CNC(=O)[C@H](CCC(=O)O)NC(=O)CCC(=O)O) [Suc-EGF(3F)F(4NO2)E-NH2]", "TEST VALUE": "0%"}

Now look at this entry.
Ask: Could you share which % Inhibition Fbw7 @ 10 µM value was measured for {3,4‑(MeO)2‑PhSO2}-[dD]EG[Phe(3-F)]WE-NH2 (SMILES COc1ccc(S(=O)(=O)N[C@H](CC(=O)O)C(=O)N[C@@H](CCC(=O)O)C(=O)NCC(=O)N[C@@H](Cc2cccc(F)c2)C(=O)N[C@@H](Cc2c[nH]c3ccccc23)C(=O)N[C@@H](CCC(=O)O)C(N)=O)cc1OC, also called UBP029) [3,4-(MeO)2-PhSO2-dEGF(3F)WE-NH2] ?
Result: 2%
